Reference for the values: paper PMC12040169

test: in vitro; conditions: human, hela cells, % viability
assay metric: viability at 28.5 h, 10 µM (%)
One number for each entry, in %.

Example entries begin here.
>>> readout_value("O=S(=O)(NCCCn1ccnc1)c1cccs1")
95.1
>>> readout_value("O=C1N(C2CCCCC2)CC2C(c3ccccc3)ONC12O (centres unmarked)")
97
>>> readout_value("CC(NC(C)(C)C)C(O)COc1ccc(Cl)c2c1C1CCC2CC1 (centres unmarked) [CBK017752C]")
89.6
>>> readout_value("Cc1ccnc(NCC2CCN(Cc3cc(=O)n4ccccc4n3)C2)c1 (centres unmarked)")
97.3
>>> readout_value("O=S(=O)(NCCn1cccc1)c1ccc2ccccc2c1")
90.4
>>> readout_value("CCN(CC)CCNC(=O)N(CC)Cc1ccncc1")
105
>>> readout_value("O=C(c1cccc(C(F)(F)F)c1)N1CCCC2(CCN(Cc3ccccc3)C2)C1 (centres unmarked)")
90.4
>>> readout_value("Cc1cc(NC(=O)CN(C)C(=O)c2cnc(Cl)c(Cl)c2)no1")
101

Lab note: each molecule below needs its viability at 28.5 h, 10 µM filled in.
1. O=C(Nc1ccc(Cl)cc1)N1Cc2nc[nH]c2C[C@H]1c1nc(-c2ccncc2)no1
2. COc1ccc(C(=O)N2CCN(c3nc4c(s3)c(C)nn4C)CC2)cc1

[91.4, 96]

---

I'd be grateful if you could share measured viability at 28.5 h, 10 µM for these entries.
test: in vitro; conditions: human, hela cells, % viability
Answers are plain numbers, in %.

Example entries begin here.
>>> readout_value("Cc1ccn(CC(=O)N2CC[C@H]3NC(=O)COc4ccccc4CCCC[C@@H]3C2)c(=O)c1")
99.2
>>> readout_value("CCOC(=O)Cn1ccc2ccnc(-c3cccc(OC)c3)c21")
89.6
>>> readout_value("O=C(Nc1ccc(O)cc1C(=O)O)c1cccc(Br)c1")
89.1
>>> readout_value("Cc1nnc2c(N3CCN(CCO)CC3)nc3ccccc3n12")
83.2

Lab note: each compound below needs its viability at 28.5 h, 10 µM filled in.
1. O=C(NC(c1ccccc1)c1ccccc1)N1CCN(CCc2ccccc2)CC1
2. O=C(CCc1nc(=O)c2c3c(sc2[nH]1)CCC3)N1CCCCCC1
3. O=C(NC1CN2CCC1CC2)c1ncoc1-c1ccccc1 (stereo not drawn)
4. O=C(NCC1CCCO1)c1cc(S(=O)(=O)N2CCOCC2)c(Cl)cc1Cl (stereo not drawn)

[101, 90.4, 104, 90.3]

Lab note: each compound below needs its viability at 28.5 h, 10 µM filled in.
1. Fc1ccccc1CN(CCCn1ccnc1)Cc1ccncc1
2. Cc1cccc(Cl)c1S(=O)(=O)c1ccc2ccnc(N3CCNCC3)c2c1 [CBK036394C]

[102, 78.9]

---

I'd be grateful if you could share measured viability at 28.5 h, 10 µM for these entries.
assay: in vitro; conditions: human, hela cells, % viability
Numbers only, in %.

Lab note: each compound below needs its viability at 28.5 h, 10 µM filled in.
1. Cc1cccc(CN2CCC(NC(=O)c3cccc4nn[nH]c34)CC2)c1
2. CN(Cc1ccc(O)cc1)C(=O)NC1CCCc2c1cnn2CCO (centres unmarked)
3. CCn1cc(S(=O)(=O)NCc2ccccc2F)cn1
4. Clc1ccccc1-c1nsc(Nc2ccccc2)n1
5. COc1ccc(-c2nnc(SCC(=O)NC(=O)c3ccccc3)n2CC(C)C)cc1
6. CN(C)Cc1cc(-c2ccc(CNC(=O)C3CC3)cc2)nn1C

[92.1, 86.3, 91.6, 96.2, 101, 80.5]

Lab note: each compound below needs its viability at 28.5 h, 10 µM filled in.
1. CN(Cc1ccsc1)C(=O)c1cccc(S(=O)(=O)NC(C)(C)C)c1
2. O=C(NC1CCCC1)c1ncoc1-c1ccccc1
3. Cc1ccc(-c2noc([C@@H]3Cc4[nH]cnc4CN3C(=O)CCC(=O)O)n2)cc1
4. c1ccc(Nc2[nH]nnc2-c2ccccc2)cc1
5. Cn1c2c(c3ccccc31)CCOC21CCN(CC2CCCCO2)CC1 (centres unmarked)
6. CC(=O)c1cccc(-c2nc(CC3CCN(C)CC3)nn2CCO)c1

[81.2, 100, 96.3, 116, 87.9, 98.3]
